Every entry's value here was drawn from patent US20230391714A1.

Target: TRIP8b-HCN1c40 (Homo sapiens (Human))
Sequence (Q8IYB4 265-626): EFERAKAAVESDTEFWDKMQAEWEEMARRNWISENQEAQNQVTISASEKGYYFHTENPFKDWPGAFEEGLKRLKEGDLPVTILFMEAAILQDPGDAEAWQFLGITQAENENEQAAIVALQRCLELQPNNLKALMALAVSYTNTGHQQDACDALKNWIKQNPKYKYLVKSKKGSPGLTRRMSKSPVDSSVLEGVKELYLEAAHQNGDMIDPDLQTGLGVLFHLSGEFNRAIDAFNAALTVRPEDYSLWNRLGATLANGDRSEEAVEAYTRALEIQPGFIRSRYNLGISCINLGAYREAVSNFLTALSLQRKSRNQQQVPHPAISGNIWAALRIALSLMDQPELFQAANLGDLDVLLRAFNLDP
Experiment: TRIP8b-HCN1c40 AlphaScreen assay
Type: binding
Conditions: read-out: TRIP8b-HCN1c40 Alphascreen IC50
pIC50: −log10 of the molar value.
Below, each of the compounds is paired with its reported pIC50 value.
assay-endpoint: pIC50

compound | value-operator | number
CC(Oc1ccc(-c2ccc(O)cc2)cc1CN1CCN(C)CC1)C(=O)NCc1ccc(Cl)cc1 (stereo not shown) | = | 4.85
CN1CCN(Cc2cc(-c3cc(Cl)cc(Cl)c3)ccc2OCC(=O)NCc2ccc(Cl)c(Cl)c2)CC1 | > | 6.13
CC(Oc1ccc(-c2ccc(F)c(C(F)(F)F)c2)cc1CN1CCN(C)CC1)C(=O)NCc1ccc(Cl)cc1 (stereo not shown) | = | 6.00
CN1CCN(Cc2cc(-c3ccc(Cl)cc3)ccc2OCC(=O)Nc2ccc(Cl)c(Cl)c2)CC1 | > | 6.13
CN1CCN(Cc2ccc(-c3ccc(C(F)(F)F)cc3)cc2OCC(=O)NCc2ccc(Cl)cc2)CC1 | = | 5.68
CN1CCN(Cc2cc(-c3ccc(Cl)c(Cl)c3)ccc2OCC(=O)NC2Cc3ccccc3C2)CC1 | = | 5.89
CN1CCN(Cc2cc(-c3ccc(F)c(C(F)(F)F)c3)ccc2OCC(=O)NCc2ccc(Cl)cc2)CC1 | = | 5.55
Cc1ccc([C@@H](C)NC(=O)C(C)Oc2ccc(-c3cc(Cl)cc(Cl)c3)cc2CN2CCN(C)CC2)cc1 (stereo partly shown) | > | 6.13
COc1ccc([C@H](C)NC(=O)COc2ccc(-c3ccc(C)cc3)cc2CN2CCC(N(C)C)CC2)cc1 | < | 4.40
CN1CCN(Cc2cc(-c3ccc(Cl)c(Cl)c3)ccc2OCC(=O)NCc2ccc(C#N)cc2)CC1 | = | 5.28
Cc1cccc(-c2ccc(OCC(=O)Nc3ccc(Cl)c(Cl)c3)c(CN3CCN(C)CC3)c2)c1 | = | 6.12
CN1CCN(Cc2cc(-c3ccc(N)cc3)ccc2OCC(=O)Nc2ccc(Cl)c(Cl)c2)CC1 | = | 5.82
CN1CCN(Cc2cc(-c3ccc(Cl)cc3)ccc2OCC(=O)NCc2ccc(Cl)cc2)CC1 [NUCC-0201972] | = | 5.30
Cc1ccc(NC(=O)COc2ccc(-c3cccc(C)c3)cc2CN2CC[C@H](N)C2)cc1 | = | 5.06
CN1CCN(Cc2cc(-c3ccc(Cl)c(Cl)c3)ccc2OCC(=O)NCCc2ccc(C(F)(F)F)cc2)CC1 | > | 6.13
CN1CCN(Cc2cc(-c3c(Cl)cc(Cl)cc3Cl)ccc2OCC(=O)NCc2ccc(Cl)c(Cl)c2)CC1 | = | 5.96
Cc1ccc(-c2ccc(OC(C)C(=O)N[C@H](C)c3ccc(C)cc3)c(CN3CCN(C)CC3)c2)cc1 (stereo partly shown) | = | 5.72
CN1CCN(Cc2cc(-c3ccc(CCl)cc3)ccc2OCC(=O)NCc2ccc(Cl)c(Cl)c2)CC1 | = | 5.18
CC(Oc1ccc(-c2ccc(Cl)cc2)cc1CN1CCN(C)CC1)C(=O)NCc1ccc(Cl)cc1 (stereo not shown) | = | 5.82
Cc1cc(C)c(-c2ccc(OCC(=O)NCc3ccc(Cl)cc3)c(CN3CCNCC3)c2)c(C)c1 | = | 5.51
CC(Oc1ccc(-c2cc(Cl)cc(Cl)c2)cc1CN1CCN(C)CC1)C(=O)NCc1ccc(Cl)cc1 (stereo not shown) | = | 6.07
CN1CCN(Cc2cc(-c3ccccc3)ccc2OCC(=O)Nc2ccc(Cl)c(Cl)c2)CC1 | = | 6.05
CN1CCN(Cc2cc(-c3ccc(Cl)c(Cl)c3)ccc2OCC(=O)N2CCc3ccccc3C2)CC1 | > | 6.13
CN1CCN(Cc2cc(-c3ccc(Cl)c(Cl)c3)ccc2OCC(=O)NCc2ccccc2Cl)CC1 | = | 6.04
CCN(CC)C(=O)COc1ccc(-c2ccc(F)cc2)cc1CN1CCN(C)CC1 | = | 3.82
CN1CCN(Cc2cc(-c3ccc(Cl)c(Cl)c3)ccc2OCC(=O)NCc2ccc(Cl)cc2)CC1 [NUCC-0201708] | > | 6.13
CN1CCN(Cc2cc(-c3cc(C(F)(F)F)cnc3Cl)ccc2OCC(=O)Nc2ccc(Cl)c(Cl)c2)CC1 | = | 5.34
CN1CCN(Cc2cc(-c3ccc(Cl)c(Cl)c3)ccc2OCC(=O)Nc2ccc3ncsc3c2)CC1 | = | 6.09
